Test system: HeLa cells infected with scAAV2-EGFP
Assay: Transduction efficiency of scAAV2-EGFP in HeLa cells (EGFP expression, fluorescent microscopy)
Conditions: HeLa, scAAV2-EGFP, 200 vgs per cell, 48 hours after infection
Let's look at some compounds and their measured concentration giving maximal increase in transgene expression.
Express your answer in µg/mL, writing the number without its unit.

// known answers, use as guide
{"Compound": "[Cl][Co][Cl] [cobalt chloride]", "Assayed Target": "HeLa cells infected with scAAV2-EGFP", "Readout Value": 25}
{"Compound": "[Cl][Ni][Cl] [nickel chloride]", "Assayed Target": "HeLa cells infected with scAAV2-EGFP", "Readout Value": 20}

Now for another entry.
Need concentration giving maximal increase in transgene expression, item [Cl-].[Cl-].[Zn+2] [zinc chloride]
30
